Reference source for all entries: ChEMBL document CHEMBL1125245

System: Streptococcus pneumoniae
Assay comment: In vivo protection against gram-positive Streptococcus pneumonia (SV-1) in mouse after subcutaneous administration
Format: functional
Condition info: sc, read-out: PD50

{"columns": ["Compound", "Unit", "ED50"],
 "data": [
  ["O=C(O)c1cn(C2CC2)c2c(F)c(N3CCN4CCC3C4)c(F)cc2c1=O (stereo not given)", "mg/kg", 11],
  ["Nc1c(F)c(N2CCNCC2)c(F)c2c1c(=O)c(C(=O)O)cn2C1CC1", "mg/kg", 23],
  ["O=C(O)c1cn(C2CC2)c2c(F)c(N3C[C@H]4CC3CN4)c(F)cc2c1=O", "mg/kg", 18.5],
  ["O=C(O)c1cn(C2CC2)c2c(F)c(N3CC4CCCC3CN4)c(F)cc2c1=O (stereo not given)", "mg/kg", 11.9],
  ["O=C(O)c1cn(C2CC2)c2cc(N3CCNCC3)c(F)cc2c1=O", "mg/kg", 29]
]}

----------
System: Streptococcus pneumoniae
Assay comment: In vivo protection against gram-positive Streptococcus pneumonia (SV-1) in mouse after oral administration.
Type: functional
Condition info: read-out: PD50

{"columns": ["Compound", "Target", "Unit", "Value prefix", "ED50"],
 "data": [
  ["O=C(O)c1cn(C2CC2)c2c(F)c(N3C[C@H]4CC3CN4)c(F)cc2c1=O", "Streptococcus pneumoniae", "mg/kg", ">", 100],
  ["O=C(O)c1cn(C2CC2)c2cc(N3C[C@H]4CC3CN4)c(F)cc2c1=O", "Streptococcus pneumoniae", "mg/kg", ">", 100],
  ["Cl.N[C@@H]1C[C@H]2CC[C@@H](C1)N2c1nc2c(cc1F)c(=O)c(C(=O)O)cn2C1CC1", "Streptococcus pneumoniae", "mg/kg", "=", 29],
  ["O=C(O)c1cn(C2CC2)c2nc(N3CC4CCC3CN4)c(F)cc2c1=O (configuration not stated)", "Streptococcus pneumoniae", "mg/kg", ">", 100],
  ["CCN[C@@H]1C[C@H]2CC[C@@H](C1)N2c1cc2c(cc1F)c(=O)c(C(=O)O)cn2C1CC1", "Streptococcus pneumoniae", "mg/kg", "=", 35],
  ["O=C(O)c1cn(C2CC2)c2cc(N3CC4CCCC3CN4)c(F)cc2c1=O (configuration not stated)", "Streptococcus pneumoniae", "mg/kg", ">", 100],
  ["Nc1c(F)c(N2CCNCC2)c(F)c2c1c(=O)c(C(=O)O)cn2C1CC1", "Streptococcus pneumoniae", "mg/kg", "=", 31],
  ["CN1CC2C[C@@H]1CN2c1nc2c(cc1F)c(=O)c(C(=O)O)cn2C1CC1.Cl", "Streptococcus pneumoniae", "mg/kg", "=", 23],
  ["Nc1c(F)c(N2CC3CCCC2CN3)c(F)c2c1c(=O)c(C(=O)O)cn2C1CC1 (configuration not stated)", "Streptococcus pneumoniae", "mg/kg", "=", 35],
  ["Br.O=C(O)c1cn(C2CC2)c2cc(N3C[C@@H]4CC3CN4)c(F)cc2c1=O", "Streptococcus pneumoniae", "mg/kg", ">", 100],
  ["O=C(O)c1cn(C2CC2)c2nc(N3CCN4CCC3C4)c(F)cc2c1=O (configuration not stated)", "Streptococcus pneumoniae", "mg/kg", "=", 32],
  ["Cl.O=C(O)c1cn(C2CC2)c2nc(N3CC4CCCC3CN4)c(F)cc2c1=O (configuration not stated)", "Streptococcus pneumoniae", "mg/kg", "=", 25],
  ["CN1CC2C[C@@H]1CN2c1c(F)cc2c(=O)c(C(=O)O)cn(C3CC3)c2c1F.Cl", "Streptococcus pneumoniae", "mg/kg", "=", 13],
  ["Nc1c(F)c(N2C[C@H]3CC2CN3)c(F)c2c1c(=O)c(C(=O)O)cn2C1CC1", "Streptococcus pneumoniae", "mg/kg", ">", 100],
  ["N[C@H]1C[C@H]2CC[C@@H](C1)N2c1c(F)cc2c(=O)c(C(=O)O)cn(C3CC3)c2c1F", "Streptococcus pneumoniae", "mg/kg", "=", 8.5],
  ["O=C(O)c1cn(C2CC2)c2c(F)c(N3CCN4CCC3C4)c(F)cc2c1=O (configuration not stated)", "Streptococcus pneumoniae", "mg/kg", "=", 32],
  ["O=C(O)c1cn(C2CC2)c2c(F)c(N3CCNCC3)c(F)cc2c1=O", "Streptococcus pneumoniae", "mg/kg", "=", 59],
  ["O=C(O)c1cn(C2CC2)c2cc(N3CCN4CCC3C4)c(F)cc2c1=O (configuration not stated)", "Streptococcus pneumoniae", "mg/kg", "=", 35],
  ["O=C(O)c1cn(C2CC2)c2cc(N3CCNCC3)c(F)cc2c1=O [CIPROFLOXACIN]", "Streptococcus pneumoniae", "mg/kg", ">", 100],
  ["O=C(O)c1cn(C2CC2)c2cc(N3CC4CCC3CN4)c(F)cc2c1=O (configuration not stated)", "Streptococcus pneumoniae", "mg/kg", ">", 100],
  ["CCN[C@H]1C[C@H]2CC[C@@H](C1)N2c1nc2c(cc1F)c(=O)c(C(=O)O)cn2C1CC1", "Streptococcus pneumoniae", "mg/kg", "=", 23],
  ["O=C(O)c1cn(C2CC2)c2c(F)c(N3CC4CCCC3CN4)c(F)cc2c1=O (configuration not stated)", "Streptococcus pneumoniae", "mg/kg", "=", 48.5]
]}

----------
Test system: Streptococcus pneumoniae
Assay comment: In vivo protection against gram-positive Streptococcus pneumonia (SV-1) in mouse after subcutaneous administration
Format: functional
Condition info: sc, read-out: PD50
The label is satisfied for ED50 below 20 mg/kg and not satisfied for ED50 equal to or exceeding 20 mg/kg.

{"columns": ["Compound", "Group label"],
 "data": [
  ["Cl.O=C(O)c1cn(C2CC2)c2nc(N3CC4CCCC3CN4)c(F)cc2c1=O (stereo not given)", "satisfied"],
  ["O=C(O)c1cn(C2CC2)c2cc(N3CC4CCC3CN4)c(F)cc2c1=O (stereo not given)", "not satisfied"],
  ["CN1CC2C[C@@H]1CN2c1c(F)cc2c(=O)c(C(=O)O)cn(C3CC3)c2c1F.Cl", "satisfied"],
  ["O=C(O)c1cn(C2CC2)c2c(F)c(N3CCNCC3)c(F)cc2c1=O", "not satisfied"],
  ["O=C(O)c1cn(C2CC2)c2nc(N3CC4CCC3CN4)c(F)cc2c1=O (stereo not given)", "satisfied"]
]}

----------
Target: DNA gyrase (Escherichia coli, UniProt P0AES4+P0AES6)
Assay comment: Compound evaluated in vitro for the ability to inhibit gyrase.
Assay type: protein-complex assay
Condition info: read-out: I50 (converted)
Reported metric: IC50 (µM)

{"columns": ["Compound", "Target", "Value reported"],
 "data": [
  ["O=C(O)c1cn(C2CC2)c2nc(N3C[C@H]4CC3CN4)c(F)cc2c1=O", "DNA gyrase (Escherichia coli, UniProt P0AES4+P0AES6)", 18.3],
  ["O=C(O)c1cn(C2CC2)c2cc(N3CCN4CCC3C4)c(F)cc2c1=O (stereo not drawn)", "DNA gyrase (Escherichia coli, UniProt P0AES4+P0AES6)", 8.39],
  ["Cl.O=C(O)c1cn(C2CC2)c2nc(N3CC4CCCC3CN4)c(F)cc2c1=O (stereo not drawn)", "DNA gyrase (Escherichia coli, UniProt P0AES4+P0AES6)", 7.34],
  ["N[C@H]1C[C@H]2CC[C@@H](C1)N2c1c(F)cc2c(=O)c(C(=O)O)cn(C3CC3)c2c1F", "DNA gyrase (Escherichia coli, UniProt P0AES4+P0AES6)", 9.76],
  ["NC1CCN(c2nc3c(cc2F)c(=O)c(C(=O)O)cn3C2CC2)CC1", "DNA gyrase (Escherichia coli, UniProt P0AES4+P0AES6)", 8.66],
  ["Cl.N[C@H]1C[C@H]2CC[C@@H](C1)N2c1nc2c(cc1F)c(=O)c(C(=O)O)cn2C1CC1", "DNA gyrase (Escherichia coli, UniProt P0AES4+P0AES6)", 18.3],
  ["CCN[C@@H]1C[C@H]2CC[C@@H](C1)N2c1nc2c(cc1F)c(=O)c(C(=O)O)cn2C1CC1", "DNA gyrase (Escherichia coli, UniProt P0AES4+P0AES6)", 15.7],
  ["O=C(O)c1cn(C2CC2)c2nc(N3CC4CCC3CN4)c(F)cc2c1=O (stereo not drawn)", "DNA gyrase (Escherichia coli, UniProt P0AES4+P0AES6)", 17.6],
  ["Br.O=C(O)c1cn(C2CC2)c2cc(N3C[C@@H]4CC3CN4)c(F)cc2c1=O", "DNA gyrase (Escherichia coli, UniProt P0AES4+P0AES6)", 4.48],
  ["O=C(O)c1cn(C2CC2)c2c(F)c(N3CC4CCCC3CN4)c(F)cc2c1=O (stereo not drawn)", "DNA gyrase (Escherichia coli, UniProt P0AES4+P0AES6)", 7.45],
  ["O=C(O)c1cn(C2CC2)c2nc(N3CCNCC3)c(F)cc2c1=O", "DNA gyrase (Escherichia coli, UniProt P0AES4+P0AES6)", 150],
  ["Nc1c(F)c(N2CCN3CCC2C3)c(F)c2c1c(=O)c(C(=O)O)cn2C1CC1 (stereo not drawn)", "DNA gyrase (Escherichia coli, UniProt P0AES4+P0AES6)", 14.1],
  ["CN1CC2CCC1CN2c1c(F)cc2c(=O)c(C(=O)O)cn(C3CC3)c2c1F (stereo not drawn)", "DNA gyrase (Escherichia coli, UniProt P0AES4+P0AES6)", 16.2],
  ["Cl.N[C@@H]1C[C@H]2CC[C@@H](C1)N2c1nc2c(cc1F)c(=O)c(C(=O)O)cn2C1CC1", "DNA gyrase (Escherichia coli, UniProt P0AES4+P0AES6)", 42.8],
  ["O=C(O)c1cn(C2CC2)c2c(F)c(N3CC4CCC3CN4)c(F)cc2c1=O (stereo not drawn)", "DNA gyrase (Escherichia coli, UniProt P0AES4+P0AES6)", 16.8],
  ["O=C(O)c1cn(C2CC2)c2c(F)c(N3CCN4CCC3C4)c(F)cc2c1=O (stereo not drawn)", "DNA gyrase (Escherichia coli, UniProt P0AES4+P0AES6)", 7.73],
  ["O=C(O)c1cn(C2CC2)c2nc(N3CCN4CCC3C4)c(F)cc2c1=O (stereo not drawn)", "DNA gyrase (Escherichia coli, UniProt P0AES4+P0AES6)", 38.5],
  ["O=C(O)c1cn(C2CC2)c2c(F)c(N3C[C@H]4CC3CN4)c(F)cc2c1=O", "DNA gyrase (Escherichia coli, UniProt P0AES4+P0AES6)", 7.75]
]}
